What Ki was measured for each of the following?
target: EcoβCA (Escherichia coli, UniProt P61517); construct: gene can; recombinant, obtained in-house; experiment: biochemical; settings: read-out: Bacterial Isoforms / Eco βCA
Sequence (P61517 whole entry, canonical isoform): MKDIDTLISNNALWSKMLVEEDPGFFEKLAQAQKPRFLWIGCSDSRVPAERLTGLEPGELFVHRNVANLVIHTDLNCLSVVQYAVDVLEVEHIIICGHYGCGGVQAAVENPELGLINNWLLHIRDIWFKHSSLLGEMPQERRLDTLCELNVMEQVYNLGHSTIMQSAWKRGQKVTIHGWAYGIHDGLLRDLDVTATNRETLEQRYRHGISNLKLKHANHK
The figure you give is taken to be in µM; do not add the unit.

Ki for "COc1ccc(S(=O)(=O)Nc2ccc(N=Nc3ccccc3)cc2)c(OC)c1" is 77.7

Ki for "N#Cc1ccc(S(=O)(=O)Nc2ccc(N=Nc3ccccc3)cc2)c(Cl)c1" is 9.21

Ki for "O=S(=O)(Nc1ccc(N=Nc2ccccc2)cc1)c1ccccc1" is 6.95

Ki for "N#Cc1ccc(S(=O)(=O)Nc2ccc(N=Nc3ccccc3)cc2)cc1" is 73.4

Ki for "Cc1ccc(S(=O)(=O)Nc2ccc(N=Nc3ccccc3)cc2)cc1[N+](=O)[O-]" is 59

Ki for "O=[N+]([O-])c1cccc(S(=O)(=O)Nc2ccc(N=Nc3ccccc3)cc2)c1" is 9.08

Ki for "O=S(=O)(Cc1ccccc1)Nc1ccc(N=Nc2ccccc2)cc1" is 88.5

Ki for "CS(=O)(=O)Nc1ccc(N=Nc2ccccc2)cc1" is 6.95

Ki for "O=S(=O)(Nc1ccc(N=Nc2ccccc2)cc1)c1ccc(Cl)s1" is 59.2

###

What log10 Ki was measured for each of the following?
target: hCA I (Homo sapiens, UniProt P00915); construct: gene CA1; purchased from Merck; assay: stopped-flow CO2 hydration; assay type: biochemical; details: read-out: KI (nM) * / Human Isoforms / hCA I
Sequence (P00915 2-261): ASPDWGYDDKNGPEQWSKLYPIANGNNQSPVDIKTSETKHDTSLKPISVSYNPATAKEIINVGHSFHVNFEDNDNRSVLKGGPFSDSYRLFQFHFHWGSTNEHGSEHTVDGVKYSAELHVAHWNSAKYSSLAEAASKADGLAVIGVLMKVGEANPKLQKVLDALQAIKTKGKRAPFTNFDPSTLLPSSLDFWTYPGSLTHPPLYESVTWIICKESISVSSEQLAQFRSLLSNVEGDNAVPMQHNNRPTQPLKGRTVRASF
Quick note: numbers are log10 of Ki, with nM as the unit.

log10 Ki for Cc1cc(/N=N/c2ccc(S(N)(=O)=O)cc2)c(C)cc1O [4f] is 0.76

log10 Ki for NS(=O)(=O)c1ccc(/N=N/c2ccc(O)c(C(F)(F)F)c2)cc1 [4d] is 1.30

log10 Ki for COc1cc(O)ccc1/N=N/c1ccc(S(N)(=O)=O)cc1 [4c] is 1.93

log10 Ki for NS(=O)(=O)c1ccc(/N=N/c2ccc(O)cc2C(F)(F)F)cc1 [4e] is 0.73

log10 Ki for Cc1cc(/N=N/c2ccc(S(N)(=O)=O)cc2)ccc1O [4i] is 0.64

log10 Ki for COc1ccc(O)c(/N=N/c2ccc(S(N)(=O)=O)cc2)c1 [4a] is 1.65

log10 Ki for COc1cc(/N=N/c2ccc(S(N)(=O)=O)cc2)ccc1O [4b] is 1.54

log10 Ki for Cc1cc(O)ccc1/N=N/c1ccc(S(N)(=O)=O)cc1 [4j] is 0.72

log10 Ki for Cc1ccc(O)c(/N=N/c2ccc(S(N)(=O)=O)cc2)c1 [4h] is 1.84

log10 Ki for Cc1cc(O)cc(C)c1/N=N/c1ccc(S(N)(=O)=O)cc1 [4g] is 0.69

###

target: PsCA3 (Pseudomonas aeruginosa, UniProt Q9HVB9); construct: gene PA4676; recombinant, obtained in-house; experiment: stopped-flow CO2 hydration; type: biochemical; details: read-out: KI (nM) * / Bacterial Isoforms / Ps CA3
Sequence (Q9HVB9 1-215): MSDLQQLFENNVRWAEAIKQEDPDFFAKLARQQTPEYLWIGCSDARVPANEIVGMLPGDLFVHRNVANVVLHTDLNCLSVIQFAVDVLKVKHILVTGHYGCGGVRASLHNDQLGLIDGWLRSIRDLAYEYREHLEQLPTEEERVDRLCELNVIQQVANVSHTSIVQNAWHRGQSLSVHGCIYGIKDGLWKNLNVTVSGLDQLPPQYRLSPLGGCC
PROPERTY: log10 Ki (log10 of the value in nM)
Quick note: numbers are log10 of Ki, with nM as the unit.

Lab entry: PsCA3 (Pseudomonas aeruginosa, UniProt Q9HVB9) assay, molecule COc1ccc(O)c(/N=N/c2ccc(S(N)(=O)=O)cc2)c1 [4a] , log10 Ki = 2.36

Lab entry: PsCA3 (Pseudomonas aeruginosa, UniProt Q9HVB9) assay, molecule Cc1cc(O)cc(C)c1/N=N/c1ccc(S(N)(=O)=O)cc1 [4g] , log10 Ki = 2.94

Lab entry: PsCA3 (Pseudomonas aeruginosa, UniProt Q9HVB9) assay, molecule Cc1ccc(O)c(/N=N/c2ccc(S(N)(=O)=O)cc2)c1 [4h] , log10 Ki = 2.99

Lab entry: PsCA3 (Pseudomonas aeruginosa, UniProt Q9HVB9) assay, molecule NS(=O)(=O)c1ccc(/N=N/c2ccc(O)c(C(F)(F)F)c2)cc1 [4d] , log10 Ki = 2.35

Lab entry: PsCA3 (Pseudomonas aeruginosa, UniProt Q9HVB9) assay, molecule Cc1cc(/N=N/c2ccc(S(N)(=O)=O)cc2)c(C)cc1O [4f] , log10 Ki = 2.28

Lab entry: PsCA3 (Pseudomonas aeruginosa, UniProt Q9HVB9) assay, molecule NS(=O)(=O)c1ccc(/N=N/c2ccc(O)cc2C(F)(F)F)cc1 [4e] , log10 Ki = 2.69

Lab entry: PsCA3 (Pseudomonas aeruginosa, UniProt Q9HVB9) assay, molecule COc1cc(O)ccc1/N=N/c1ccc(S(N)(=O)=O)cc1 [4c] , log10 Ki = 2.34

Lab entry: PsCA3 (Pseudomonas aeruginosa, UniProt Q9HVB9) assay, molecule Cc1cc(O)ccc1/N=N/c1ccc(S(N)(=O)=O)cc1 [4j] , log10 Ki = 3.26

Lab entry: PsCA3 (Pseudomonas aeruginosa, UniProt Q9HVB9) assay, molecule Cc1cc(/N=N/c2ccc(S(N)(=O)=O)cc2)ccc1O [4i] , log10 Ki = 2.06

Lab entry: PsCA3 (Pseudomonas aeruginosa, UniProt Q9HVB9) assay, molecule COc1cc(/N=N/c2ccc(S(N)(=O)=O)cc2)ccc1O [4b] , log10 Ki = 2.85

Numbers sourced from paper PMC11357054.
